assay: The drug is tested on WLS-090 corresponding to human gut metagenome with ENA study accession number: PRJEB37062 and ENA sample accession number: ERS12561753 for biotransformation under anaerobic condition. The drug concentrations were measured over 9 timepoints collected between 0 and 24 hours of incubation by liquid-chromatography-coupled mass spectrometry (LC–MS); settings: 2 µM; note: call rule not given here
measurement_kind: Bacterial Biotransformation

COc1ccc(C(CN(C)C)C2(O)CCCCC2)cc1 (configuration not stated) | Compound NOT metabolized
N#Cc1ccc2c(c1)N(CCCN1CCC(O)CC1)c1ccccc1S2 | Compound metabolized
O=C([O-])C[C@H](O)C[C@H](O)/C=C/c1c(C2CC2)nc2ccccc2c1-c1ccc(F)cc1.O=C([O-])C[C@H](O)C[C@H](O)/C=C/c1c(C2CC2)nc2ccccc2c1-c1ccc(F)cc1.[Ca+2] | Compound metabolized
N#Cc1ccc2[nH]cc(CCCCN3CCN(c4ccc5oc(C(N)=O)cc5c4)CC3)c2c1 | Compound metabolized

Below is a list of compounds. For each, state its recorded Bacterial Biotransformation.
1. O=P1(N(CCCl)CCCl)NCCCO1 (configuration not stated) [CYCLOPHOSPHAMIDE ANHYDROUS]
2. Nc1nc(NC2CC2)c2ncn([C@H]3C=C[C@@H](CO)C3)c2n1.Nc1nc(NC2CC2)c2ncn([C@H]3C=C[C@@H](CO)C3)c2n1.O=S(=O)(O)O [ABACAVIR SULFATE]
3. CCN(CC)C(=O)C1(c2ccccc2)CC1CN (configuration not stated)

1. Compound metabolized
2. Compound metabolized
3. Compound NOT metabolized

###

conditions: human gut metagenome, 24 h, 2 µM
measurement_kind: Bacterial Biotransformation

CN1CCC(=C2c3ccccc3CC(=O)c3sccc32)CC1.O=C(O)/C=C/C(=O)O [KETOTIFEN FUMARATE] | Compound metabolized
CCc1oc2ccccc2c1C(=O)c1cc(Br)c(O)c(Br)c1 | Compound metabolized
CC[C@H](C)C(=O)O[C@H]1CCC=C2C=C[C@H](C)[C@H](CC[C@@H]3C[C@@H](O)CC(=O)O3)[C@H]21 | Compound metabolized

###

experiment: The drug is tested on WLS-310 corresponding to human gut metagenome with ENA study accession number: PRJEB37062 and ENA sample accession number: ERS12561785 for biotransformation under anaerobic condition. The drug concentrations were measured over 9 timepoints collected between 0 and 24 hours of incubation by liquid-chromatography-coupled mass spectrometry (LC–MS); settings: 2 µM
measurement_kind: Bacterial Biotransformation

O=C(NC(Cc1cc(=O)[nH]c2ccccc12)C(=O)O)c1ccc(Cl)cc1 (stereo unspecified) [REBAMIPIDE] | Compound NOT metabolized
CCOC(=O)[C@H](CCc1ccccc1)N[C@@H](C)C(=O)N1CCC[C@H]1C(=O)O.O=C(O)/C=C\C(=O)O [ENALAPRIL MALEATE] | Compound NOT metabolized
CC(C)c1nc(N(C)S(C)(=O)=O)nc(-c2ccc(F)cc2)c1/C=C/[C@@H](O)C[C@@H](O)CC(=O)[O-].CC(C)c1nc(N(C)S(C)(=O)=O)nc(-c2ccc(F)cc2)c1/C=C/[C@@H](O)C[C@@H](O)CC(=O)[O-].[Ca+2] [ROSUVASTATIN CALCIUM] | Compound metabolized
CCCN(CCC)CCc1cccc2c1CC(=O)N2 [ROPINIROLE] | Compound NOT metabolized
CN1CCC(OC(c2ccccc2)c2ccccc2)CC1 | Compound metabolized

Now let's try a different one.
The value of Bacterial Biotransformation measured for the compound C=C[C@H]1CN2CC[C@H]1C[C@H]2[C@H](O)c1ccnc2ccc(OC)cc12.C=C[C@H]1CN2CC[C@H]1C[C@H]2[C@H](O)c1ccnc2ccc(OC)cc12.O.O.O=S(=O)(O)O [QUININE SULFATE] turned out to be Compound metabolized

###

experiment: The drug is tested on Z-025 corresponding to rabbit gut metagenome with ENA study accession number: PRJEB37062 and ENA sample accession number: ERS12561824 for biotransformation under anaerobic condition. The drug concentrations were measured over 9 timepoints collected between 0 and 24 hours of incubation by liquid-chromatography-coupled mass spectrometry (LC–MS); settings: 2 µM
measurement_kind: Bacterial Biotransformation

Example cases with answers are listed next.
COc1ccc(/C=C/C(=O)Nc2ccccc2C(=O)O)cc1OC | Compound metabolized
COc1cc(NC(C)CCCN)c2ncccc2c1.O=P(O)(O)O.O=P(O)(O)O (configuration not stated) [PRIMAQUINE PHOSPHATE] | Compound metabolized
CCN(C)C(=O)Oc1cccc([C@H](C)N(C)C)c1.O=C(O)C(O)C(O)C(=O)O [RIVASTIGMINE TARTRATE] | Compound NOT metabolized
CC(=O)OCC(CCn1cnc2cnc(N)nc21)COC(C)=O [FAMCICLOVIR] | Compound metabolized
CCN(CC)CCOC(=O)C1(C2CCCCC2)CCCCC1 [DICYCLOMINE] | Compound NOT metabolized
CC[C@@]1(O)C(=O)OCc2c1cc1n(c2=O)Cc2cc3c(CN(C)C)c(O)ccc3nc2-1 [TOPOTECAN] | Compound NOT metabolized
C#C[C@]1(OC(C)=O)CC[C@H]2[C@@H]3CCC4=C/C(=N/O)CC[C@@H]4[C@H]3CC[C@@]21CC [NORGESTIMATE] | Compound NOT metabolized
CCCC(C)(COC(N)=O)COC(=O)NC(C)C (configuration not stated) [CARISOPRODOL] | Compound metabolized
CC1Cc2ccccc2N1NC(=O)c1ccc(Cl)c(S(N)(=O)=O)c1 (configuration not stated) [INDAPAMIDE] | Compound NOT metabolized
O=C(NC(Cc1cc(=O)[nH]c2ccccc12)C(=O)O)c1ccc(Cl)cc1 (configuration not stated) [REBAMIPIDE] | Compound NOT metabolized

Below is a list of compounds. For each, state its recorded Bacterial Biotransformation.
1. O=C1N=C([O-])NC1(c1ccccc1)c1ccccc1.[Na+] [PHENYTOIN SODIUM]
2. CN1CCCCC1CCN1c2ccccc2Sc2ccc([S+](C)[O-])cc21.O=S(=O)(O)c1ccccc1 (configuration not stated) [MESORIDAZINE BESYLATE]
3. O=C1CC2(CCCC2)CC(=O)N1CCCCN1CCN(c2ncccn2)CC1 [BUSPIRONE]
4. CC[C@H](C)C(=O)O[C@H]1CCC=C2C=C[C@H](C)[C@H](CC[C@@H]3C[C@@H](O)CC(=O)O3)[C@H]21 [MEVASTATIN]
5. CN(C)C(=O)Oc1cccc([N+](C)(C)C)c1.[Br-] [NEOSTIGMINE BROMIDE]
6. COc1ccc2cc([C@H](C)C(=O)O)ccc2c1 [NAPROXEN]

Compound NOT metabolized
Compound metabolized
Compound NOT metabolized
Compound metabolized
Compound NOT metabolized
Compound NOT metabolized

###

assay: The drug is tested on WLS-052 corresponding to human gut metagenome with ENA study accession number: PRJEB37062 and ENA sample accession number: ERS12561747 for biotransformation under anaerobic condition. The drug concentrations were measured over 9 timepoints collected between 0 and 24 hours of incubation by liquid-chromatography-coupled mass spectrometry (LC–MS); conditions: 2 µM
measurement_kind: Bacterial Biotransformation

Example cases with answers are listed next.
C=CC[C@@H]1/C=C(\C)C[C@H](C)C[C@H](OC)[C@H]2O[C@@](O)(C(=O)C(=O)N3CCCC[C@H]3C(=O)O[C@H](/C(C)=C/[C@@H]3CC[C@@H](O)[C@H](OC)C3)[C@H](C)[C@@H](O)CC1=O)[C@H](C)C[C@@H]2OC.O | Compound metabolized
O=C1C(CC[S+]([O-])c2ccccc2)C(=O)N(c2ccccc2)N1c1ccccc1 (configuration not stated) | Compound metabolized
O=C1N=C([O-])NC1(c1ccccc1)c1ccccc1.[Na+] [PHENYTOIN SODIUM] | Compound metabolized
CCc1oc2ccccc2c1C(=O)c1cc(Br)c(O)c(Br)c1 | Compound metabolized
C[C@]12CCC(=O)C=C1[C@@H]1C[C@@H]1[C@H]1[C@@H]3[C@@H]4C[C@@H]4[C@@]4(CCC(=O)O4)[C@@]3(C)CC[C@@H]12 | Compound metabolized

The value of Bacterial Biotransformation measured for the compound C[C@]12C=CC(=O)C=C1CC[C@@H]1[C@@H]2C(=O)C[C@@]2(C)[C@H]1CC[C@]2(O)C(=O)CO turned out to be Compound metabolized

###

test: The drug is tested on Z-006 corresponding to mouse gut metagenome with ENA study accession number: PRJEB37062 and ENA sample accession number: ERS12561806 for biotransformation under anaerobic condition. The drug concentrations were measured over 9 timepoints collected between 0 and 24 hours of incubation by liquid-chromatography-coupled mass spectrometry (LC–MS); conditions: 2 µM
measurement_kind: Bacterial Biotransformation

COc1ccc([C@@H]2Sc3ccccc3N(CCN(C)C)C(=O)[C@@H]2OC(C)=O)cc1 [DILTIAZEM] | Compound NOT metabolized
CC(C)NCC(O)COc1ccc(CC(N)=O)cc1 (centres undefined) [ATENOLOL] | Compound NOT metabolized
COC(=O)C(c1ccccc1)C1CCCCN1 (centres undefined) [METHYLPHENIDATE] | Compound NOT metabolized
CCOC(=O)C1=C[C@]2(CC)CCCN3CCc4c(n1c1ccccc41)[C@@H]32 [VINPOCETINE] | Compound NOT metabolized
Nc1nc(N)nc(-c2cc(Cl)ccc2Cl)n1.O=C(O)/C=C\C(=O)O [IRSOGLADINE MALEATE] | Compound NOT metabolized

Below is a list of compounds. For each, state its recorded Bacterial Biotransformation.
1. N#Cc1ccc2[nH]cc(CCCCN3CCN(c4ccc5oc(C(N)=O)cc5c4)CC3)c2c1 [VILAZODONE]
2. CC(=O)OCC(CCn1cnc2cnc(N)nc21)COC(C)=O [FAMCICLOVIR]
3. O=P1(N(CCCl)CCCl)NCCCO1 (centres undefined) [CYCLOPHOSPHAMIDE ANHYDROUS]
4. Cc1cc(C)cc(OCC2CNC(=O)O2)c1 (centres undefined) [METAXALONE]

1: Compound metabolized; 2: Compound metabolized; 3: Compound NOT metabolized; 4: Compound NOT metabolized
